test system: HT29 colon; assay: NCI tumour cell line growth inhibition, 48 h
Mark met for reported TGI of 40 µM or greater; mark not met for anything smaller.

Please review the entries below; each comes with its answer.
CC(C)(C)NNC(=O)/C(=C/c1ccc(Oc2ccc(Cl)c(Cl)c2)cc1)NC(=O)c1ccccc1 | met
CCCCCCCCCOC(=O)c1cnc(Cl)cn1 | met

Problem: API: above_or_equal(metric=TGI, cutoff=40 µM) for item "CN(C)c1nc(N(C)C)nc(N(C)C)n1"
Solution: met

Problem: TGI >= 40 µM for O=P(c1ccccc1)(c1ccccc1)C1CC=C(c2ccccc2)C2(CCCC2)C1 (configuration not stated) ?
Solution: met

Problem: Determine whether this compound has TGI no lower than 40 µM: CC(C)(C)OC(=O)[N+](=N)C(=O)C1CCC(=O)N1C(=O)OCc1ccccc1 (configuration not stated)
Solution: met

Problem: Threshold query (TGI >= 40 µM) on "CCNC(=O)C[C@@H]1N=C(c2ccc(Cl)cc2)c2cc(OC)ccc2-n2c(C)nnc21"
Solution: met

Problem: Test whether the compound CCCCCC(CN1CCOCC1)C(=O)/C=C/c1ccccc1 (configuration not stated) records TGI of 40 µM or higher.
Solution: not met

Problem: Has "CC1=C(C)C(=O)c2c(c(C(=O)c3ccccc3)c3nc4ccccc4n3c2C)C1=O" a recorded TGI greater than or equal to 40 µM?
Solution: met

Problem: Form field: TGI at least 40 µM? Entry: "CCNc1nnc(CSc2nc(-c3ccccc3)c(-c3ccccc3)[nH]2)s1"
Solution: not met

Problem: Exam item: decide whether the reported TGI for OC1(c2ccccc2)CC2CCC(C1)N2CCc1ccccc1 (configuration not stated) is at least 40 µM.
Solution: met

Problem: # check: TGI of "CC/C(=N\NC(=O)c1cccnc1)c1ccc2c(c1)OCCO2" is greater than or equal to 40 µM
Solution: met

Problem: Please tell me: is the compound "CCOC(=O)c1cc2cc(N(C(C)=O)C(C)=O)ccc2s1" at or over 40 µM in terms of TGI?
Solution: met
